target: GABAA1 (human α1β2γ2 GABAA receptor) (Homo sapiens, UniProt P14867+P18507); construct: expressed in transfected cells; host or cells: Xenopus laevis oocytes injected with capped cRNA; test: Two-electrode voltage-clamp in Xenopus oocytes, potentiation of GABA EC10 current, GABAA1; format: cell-based; conditions: percentage potentiation of GABA EC10 current divided by that of diazepam
Sequence (P14867 28-456): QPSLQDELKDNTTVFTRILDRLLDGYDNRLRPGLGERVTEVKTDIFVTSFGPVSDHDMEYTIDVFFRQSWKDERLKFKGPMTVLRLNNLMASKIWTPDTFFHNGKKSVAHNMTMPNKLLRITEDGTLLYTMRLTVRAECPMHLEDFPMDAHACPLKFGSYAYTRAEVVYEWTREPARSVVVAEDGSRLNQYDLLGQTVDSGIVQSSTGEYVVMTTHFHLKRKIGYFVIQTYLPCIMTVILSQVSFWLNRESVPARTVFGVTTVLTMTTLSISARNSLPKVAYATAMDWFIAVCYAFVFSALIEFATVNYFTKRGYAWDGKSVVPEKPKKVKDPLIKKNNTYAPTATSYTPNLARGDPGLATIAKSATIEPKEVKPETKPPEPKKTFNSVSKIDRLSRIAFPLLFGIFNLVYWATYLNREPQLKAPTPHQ
Sequence (P47870 25-512 partner limits assumed): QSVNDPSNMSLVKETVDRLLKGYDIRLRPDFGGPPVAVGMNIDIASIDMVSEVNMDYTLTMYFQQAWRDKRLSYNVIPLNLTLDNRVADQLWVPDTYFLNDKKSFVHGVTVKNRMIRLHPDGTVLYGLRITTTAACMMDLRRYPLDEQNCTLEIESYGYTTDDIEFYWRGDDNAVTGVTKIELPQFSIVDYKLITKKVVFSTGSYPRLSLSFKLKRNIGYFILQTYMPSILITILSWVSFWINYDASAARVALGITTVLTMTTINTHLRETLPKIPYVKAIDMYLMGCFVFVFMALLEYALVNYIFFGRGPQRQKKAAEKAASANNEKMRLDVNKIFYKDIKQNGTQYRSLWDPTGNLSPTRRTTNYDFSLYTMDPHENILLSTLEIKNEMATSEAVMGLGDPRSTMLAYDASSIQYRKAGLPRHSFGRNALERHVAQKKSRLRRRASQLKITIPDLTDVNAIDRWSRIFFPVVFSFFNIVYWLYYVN
Sequence (P18507 40-475): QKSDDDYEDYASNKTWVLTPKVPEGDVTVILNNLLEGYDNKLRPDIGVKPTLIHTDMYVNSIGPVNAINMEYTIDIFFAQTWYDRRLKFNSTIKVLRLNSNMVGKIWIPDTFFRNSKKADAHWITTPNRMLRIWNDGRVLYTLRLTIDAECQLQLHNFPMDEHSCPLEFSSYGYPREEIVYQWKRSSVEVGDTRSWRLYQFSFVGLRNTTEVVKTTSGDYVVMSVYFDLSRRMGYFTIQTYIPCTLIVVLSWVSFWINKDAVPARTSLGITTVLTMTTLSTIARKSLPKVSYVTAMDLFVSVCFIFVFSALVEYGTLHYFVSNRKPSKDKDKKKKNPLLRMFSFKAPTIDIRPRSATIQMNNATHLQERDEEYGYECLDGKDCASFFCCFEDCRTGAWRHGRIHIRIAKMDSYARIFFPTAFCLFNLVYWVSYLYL
REPORTED ENDPOINT: Relative Potentiation for GABAA1

Which Relative Potentiation for GABAA1 value belongs to "CCCNC(=O)c1nnc2c(-c3cccc(F)c3OC)cccc2c1N" ?
0.11

Could you do the same for "CCCNC(=O)c1nnc2c(-c3cc(F)ccc3OC)cccc2c1N" , please?
0.026

Could you do the same for "CCCNC(=O)c1nnc2c(-c3ccc(OC)nc3OC)cccc2c1N" , please?
0.17

Could you do the same for "CCCNC(=O)c1nnc2c(-c3ccc(OC)c(OC)c3OC)c(F)ccc2c1N" , please?
0.51

Could you do the same for "CCCNC(=O)c1nnc2c(-c3ccc(N(C)C)cc3)cccc2c1N" , please?
0.07

Could you do the same for "C=CCNC(=O)c1nnc2c(-c3cc(OC)ccc3OC)cccc2c1N" , please?
0.0075

Could you do the same for "COc1ncccc1-c1cccc2c(N)c(C(=O)NC3CC3)nnc12" , please?
−0.054

Could you do the same for "CCCNC(=O)c1nnc2c(-c3nc(Br)ccc3OC)cccc2c1N" , please?
0.34

Could you do the same for "CCCNC(=O)c1nnc2c(-c3cccc(OC)c3F)c(F)ccc2c1N" , please?
0.05

Could you do the same for "CCCNC(=O)c1nnc2c(-c3ccc(OC)c(F)c3)cccc2c1N" , please?
0.03

Could you do the same for "CCCNC(=O)c1nnc2c(-c3cc(Cl)ccc3Cl)c(F)ccc2c1N" , please?
0.21

Could you do the same for "CCCNC(=O)c1nnc2c(-c3cc(F)ccc3OC)c(F)ccc2c1N" , please?
0.085

Could you do the same for "CCCNC(=O)c1nnc2c(-c3ccc4[nH]ccc4c3)cccc2c1N" , please?
0.15

Could you do the same for "CCCNC(=O)c1nnc2c(-c3cc(F)c(OC)cc3F)cccc2c1N" , please?
0.016

Could you do the same for "CCCNC(=O)c1nnc2c(-c3ccsc3)cccc2c1N" , please?
−0.26

Could you do the same for "CCCNC(=O)c1nnc2c(-c3cccc(OC)c3)cccc2c1N" , please?
0.13
